Target: human JAK1 (a.a. 837-1142) catalytic domain (Homo sapiens, UniProt P23458)
Sequence (P23458 849-1154): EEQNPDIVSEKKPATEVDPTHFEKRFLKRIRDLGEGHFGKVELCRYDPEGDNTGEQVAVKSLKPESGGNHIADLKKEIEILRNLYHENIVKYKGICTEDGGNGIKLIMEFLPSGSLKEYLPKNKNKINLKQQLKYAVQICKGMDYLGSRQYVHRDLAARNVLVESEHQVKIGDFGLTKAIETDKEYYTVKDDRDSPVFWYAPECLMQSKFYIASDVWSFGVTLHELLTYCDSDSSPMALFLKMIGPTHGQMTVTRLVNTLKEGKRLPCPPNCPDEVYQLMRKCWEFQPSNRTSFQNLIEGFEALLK
endpoint.label: IC50

Here's what some known entries look like.
compound | tested.system | IC50
N#CCC(C1CCC(O)C1)n1cc(-c2ncnc3[nH]ccc23)cn1 (stereo not drawn) [Metabolite 1] | human JAK1 (a.a. 837-1142) catalytic domain (Homo sapiens, UniProt P23458) | 2.5 to 12 nM
N#CCC(C1CCC(=O)C1)n1cc(-c2ncnc3[nH]ccc23)cn1 (stereo not drawn) [Metabolite 3] | human JAK1 (a.a. 837-1142) catalytic domain (Homo sapiens, UniProt P23458) | 2.7 to 12 nM

Next item in the queue.
N#CCC(C1CCCC1O)n1cc(-c2ncnc3[nH]ccc23)cn1 (stereo not drawn) [Metabolite 2] tested on human JAK1 (a.a. 837-1142) catalytic domain (Homo sapiens, UniProt P23458) gave IC50: 3 to 15 nM

* * *

Quick record: pIC50, human Jak3 (a.a. 781-1124) catalytic domain (Homo sapiens, UniProt P52333).
pIC50: −log10 of the molar value.

compound | tested.system | result
N#CCC(C1CCC(O)C1)n1cc(-c2ncnc3[nH]ccc23)cn1 (stereo not drawn) [Metabolite 1] | human Jak3 (a.a. 781-1124) catalytic domain (Homo sapiens, UniProt P52333) | 7.35 to 8.08
N#CCC(C1CCC(=O)C1)n1cc(-c2ncnc3[nH]ccc23)cn1 (stereo not drawn) [Metabolite 3] | human Jak3 (a.a. 781-1124) catalytic domain (Homo sapiens, UniProt P52333) | 7.39 to 7.96

# ---- query compound ----
Documented pIC50 of N#CCC(C1CCCC1O)n1cc(-c2ncnc3[nH]ccc23)cn1 (stereo not drawn) [Metabolite 2] : 7.52 to 7.77

* * *

Target: human Jak2 (a.a. 828-1132) catalytic domain (Homo sapiens)
Sequence (O60674 828-1132): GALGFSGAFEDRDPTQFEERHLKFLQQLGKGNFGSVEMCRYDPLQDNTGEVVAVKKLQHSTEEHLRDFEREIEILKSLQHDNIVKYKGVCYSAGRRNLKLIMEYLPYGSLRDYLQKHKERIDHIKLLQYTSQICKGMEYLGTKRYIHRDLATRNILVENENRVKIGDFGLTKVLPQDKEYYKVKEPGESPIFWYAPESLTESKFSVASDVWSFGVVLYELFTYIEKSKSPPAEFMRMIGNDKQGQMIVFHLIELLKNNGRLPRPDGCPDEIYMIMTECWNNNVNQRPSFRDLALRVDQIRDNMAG
Catalogue of IC50 readings, one per entry.

These recorded examples may help you get a feel for the data.
molecule | tested.system | result
N#CCC(C1CCC(=O)C1)n1cc(-c2ncnc3[nH]ccc23)cn1 (stereo not drawn) [Metabolite 3] | human Jak2 (a.a. 828-1132) catalytic domain (Homo sapiens) | 2.1 to 5.9 nM
N#CCC(C1CCC(O)C1)n1cc(-c2ncnc3[nH]ccc23)cn1 (stereo not drawn) [Metabolite 1] | human Jak2 (a.a. 828-1132) catalytic domain (Homo sapiens) | 0.7 to 2.5 nM

Attention now shifts to the item below.
Kindly note the recorded IC50 for N#CCC(C1CCCC1O)n1cc(-c2ncnc3[nH]ccc23)cn1 (stereo not drawn) [Metabolite 2] , which is 2 to 2.8 nM

* * *

Experiment: Intrinsic clearance assay (human liver microsomes)
Assay type: in vitro ADME
Conditions: both sexes; 1 μM compound, human liver microsomes 0.5 mg/mL protein, 37° C., 1 mM NADPH; read-out: Human Intrinsic CL (converted)
Measured CLint scaled at 1 μM of individual entries

Sample records with CLint scaled at 1 μM:
molecule | CLint scaled at 1 μM
N#CCC(C1CCCC1O)n1cc(-c2ncnc3[nH]ccc23)cn1 (stereo not shown) [Metabolite 2] | < 8.33 mL/min/kg
N#CCC(C1CCC(O)C1)n1cc(-c2ncnc3[nH]ccc23)cn1 (stereo not shown) [Metabolite 1] | < 8.33 mL/min/kg

CLint scaled at 1 μM measured on N#CCC(C1CCC(=O)C1)n1cc(-c2ncnc3[nH]ccc23)cn1 (stereo not shown) [Metabolite 3] = < 9.5 mL/min/kg

Consider N#CC[C@H](C1CCCC1)n1cc(-c2ncnc3[nH]ccc23)cn1 [Compound 1, reference compound] . Its measured CLint scaled at 1 μM is 11.3 mL/min/kg
